# target-desc: human CXCR4, endogenous on human cells (CCRF-CEM leukemia cells; U937 histiocytic lymphoma cells) (human, UniProt P61073 1-352)
# Sequence (P61073 whole entry): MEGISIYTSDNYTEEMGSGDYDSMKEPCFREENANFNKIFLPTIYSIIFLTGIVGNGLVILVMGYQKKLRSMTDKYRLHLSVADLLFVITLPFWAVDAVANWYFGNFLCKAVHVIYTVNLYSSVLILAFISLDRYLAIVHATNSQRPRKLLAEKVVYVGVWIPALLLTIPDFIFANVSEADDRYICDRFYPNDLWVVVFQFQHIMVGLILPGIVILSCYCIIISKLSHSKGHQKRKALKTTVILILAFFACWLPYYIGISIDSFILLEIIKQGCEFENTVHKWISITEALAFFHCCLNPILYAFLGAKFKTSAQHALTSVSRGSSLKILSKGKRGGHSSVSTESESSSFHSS
# assay-procedure: cell-based or functional assay
property-label: IC50, chemotaxis assay (SDF-1α-driven migration of U937 cells)

INSERT INTO measurements (binder, recorded_measurement) VALUES
  ('Antibody IV (antibody, human IgG4 S228P, kappa, F234A L235A, V domains shown) VH: EVQLVESGGGLVQPGGSLRLSCAASGFTSTDYYFSWVRQAPGKGLEWVGFIRNKRKGYTTEYSGSVKGRFTISRDDSKNSLYLQMNSLKTEDTAVYYCAREPITTDPRDYWGQGTLVTVSS VL: DIVMTQSPDSLAVSLGERATINCKSSQSLFNSRTRKKYLAWYQQKPGQPPKLLIYWASKRKSGVPDRFSGSGSGTDFTLTISSLQAEDVAVYYCKQSRFLRAFGQGTKLEIKR', '≤ 30 nM');

Batch of 3 binders: report IC50, chemotaxis assay (SDF-1α-driven migration of U937 cells) for each.
1. Antibody II (antibody, human IgG4 S228P, kappa, F234A L235A, V domains shown) VH: EVQLVESGGGLVQPGGSLRLSCAASGFTSTDYYFSWVRQAPGKGLEWVGFIRSKSKGYTTEYSGSVKGRFTISRDDSKNSLYLQMNSLKTEDTAVYYCAREPITTDPRDYWGQGTLVTVSS VL: DIVMTQSPDSLAVSLGERATINCKSSQSLFNSRTRKKYLAWYQQKPGQPPKLLIYWASKRKSGVPDRFSGSGSGTDFTLTISSLQAEDVAVYYCKQSRFLRAFGQGTKLEIKR
2. Antibody V (antibody, human IgG4 S228P, kappa, F234A L235A, V domains shown) VH: EVQLVESGGGLVQPGGSLRLSCAASGFTSTDYYFSWVRQAPGKGLEWVGFIRHKSKGYTTEYSGSVKGRFTISRDDSKNSLYLQMNSLKTEDTAVYYCAREPITTDPRDYWGQGTLVTVSS VL: DIVMTQSPDSLAVSLGERATINCKSSQSLFNSRTRKKYLAWYQQKPGQPPKLLIYWASKRKSGVPDRFSGSGSGTDFTLTISSLQAEDVAVYYCKQSRFLRAFGQGTKLEIKR
3. Antibody I (antibody, human IgG4 S228P, kappa, F234A L235A, V domains shown) VH: EVQLVESGGGLVQPGGSLRLSCAASGFTSTDYYFSWVRQAPGKGLEWVGFIRTKSKGYTTEYSGSVKGRFTISRDDSKNSLYLQMNSLKTEDTAVYYCAREPITTDPRDYWGQGTLVTVSS VL: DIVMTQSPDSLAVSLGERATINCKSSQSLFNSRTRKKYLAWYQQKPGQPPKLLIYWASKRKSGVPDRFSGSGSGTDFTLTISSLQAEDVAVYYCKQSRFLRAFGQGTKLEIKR

Result:
["≤ 30 nM", "≤ 30 nM", "≤ 30 nM"]

Hey, just so you know, these numbers are from patent US20100285005A1.
